System: A2780 cells
Assay: In vitro proliferation suppression test (CellTiter-Glo)
Type: cell-based, human
Conditions: Homo sapiens, 72 h, A2780 cell proliferation inhibitory rate at 1 μM test compound, three days
Hi there, I'd appreciate the recorded inhibition at 1 µM for every entry that follows.
Provide the reading as a plain figure in %.

Task: Given Cn1cc(-c2ccc(N(C(=O)NCc3ccccc3)[C@H]3CC[C@H](Nc4ncc(C#N)c(NC5COC5)n4)CC3)nc2)cn1 , respond with its inhibition at 1 µM.
Output: 97

Task: Given COc1ncc(-c2ccc(N(C(=O)NCc3ccccc3F)[C@H]3CC[C@H](Nc4ncc(C#N)c(NC5COC5)n4)CC3)nc2)cn1 , respond with its inhibition at 1 µM.
Output: 97

Task: Given COc1ncc(-c2cnc(N(C(=O)OCc3ccccc3)[C@H]3CC[C@H](Nc4ncc(C#N)c(N5CCCC(O)CC5)n4)CC3)nc2)cn1 (some centres unmarked) , respond with its inhibition at 1 µM.
Output: 97

Task: Given CCCC(=O)N(c1ccc(-c2cnc(OC)nc2)cn1)[C@H]1CC[C@H](Nc2ncc(C(F)(F)F)c(-c3cncc(S(C)(=O)=O)c3)n2)CC1 , respond with its inhibition at 1 µM.
Output: 99

Task: Given COc1ncc(-c2cnc(N(C(=O)CCC(F)F)[C@H]3CC[C@H](Nc4ncc(C(F)(F)F)c(-c5cncc(S(C)(=O)=O)c5)n4)CC3)cn2)cn1 , respond with its inhibition at 1 µM.
Output: 98

Task: Given COc1ncc(-c2ccc(N(C(=O)NCC(F)(F)F)[C@H]3CC[C@H](Nc4ncc(C(F)(F)F)c(-c5n[nH]cc5Cl)n4)CC3)nc2)cn1 , respond with its inhibition at 1 µM.
Output: 98

Task: Given COc1ncc(-c2ccc(N(C(=O)OCc3ccccc3)[C@H]3CC[C@H](Nc4ncc(C#N)c(NC5COC5)n4)CC3)nc2)cn1 , respond with its inhibition at 1 µM.
Output: 99

Task: Given COc1ncc(-c2ccc(N(C(=O)OCc3ccccc3)[C@H]3CC[C@H](Nc4ncc(C(F)(F)F)c(N5CC(F)(CO)C5)n4)CC3)nc2)cn1 , respond with its inhibition at 1 µM.
Output: 93

* * *

Biological target: CDK12/CycK complex (Homo sapiens, UniProt Q9NYV4)
Sequence (Q9NYV4 whole entry, species assumed): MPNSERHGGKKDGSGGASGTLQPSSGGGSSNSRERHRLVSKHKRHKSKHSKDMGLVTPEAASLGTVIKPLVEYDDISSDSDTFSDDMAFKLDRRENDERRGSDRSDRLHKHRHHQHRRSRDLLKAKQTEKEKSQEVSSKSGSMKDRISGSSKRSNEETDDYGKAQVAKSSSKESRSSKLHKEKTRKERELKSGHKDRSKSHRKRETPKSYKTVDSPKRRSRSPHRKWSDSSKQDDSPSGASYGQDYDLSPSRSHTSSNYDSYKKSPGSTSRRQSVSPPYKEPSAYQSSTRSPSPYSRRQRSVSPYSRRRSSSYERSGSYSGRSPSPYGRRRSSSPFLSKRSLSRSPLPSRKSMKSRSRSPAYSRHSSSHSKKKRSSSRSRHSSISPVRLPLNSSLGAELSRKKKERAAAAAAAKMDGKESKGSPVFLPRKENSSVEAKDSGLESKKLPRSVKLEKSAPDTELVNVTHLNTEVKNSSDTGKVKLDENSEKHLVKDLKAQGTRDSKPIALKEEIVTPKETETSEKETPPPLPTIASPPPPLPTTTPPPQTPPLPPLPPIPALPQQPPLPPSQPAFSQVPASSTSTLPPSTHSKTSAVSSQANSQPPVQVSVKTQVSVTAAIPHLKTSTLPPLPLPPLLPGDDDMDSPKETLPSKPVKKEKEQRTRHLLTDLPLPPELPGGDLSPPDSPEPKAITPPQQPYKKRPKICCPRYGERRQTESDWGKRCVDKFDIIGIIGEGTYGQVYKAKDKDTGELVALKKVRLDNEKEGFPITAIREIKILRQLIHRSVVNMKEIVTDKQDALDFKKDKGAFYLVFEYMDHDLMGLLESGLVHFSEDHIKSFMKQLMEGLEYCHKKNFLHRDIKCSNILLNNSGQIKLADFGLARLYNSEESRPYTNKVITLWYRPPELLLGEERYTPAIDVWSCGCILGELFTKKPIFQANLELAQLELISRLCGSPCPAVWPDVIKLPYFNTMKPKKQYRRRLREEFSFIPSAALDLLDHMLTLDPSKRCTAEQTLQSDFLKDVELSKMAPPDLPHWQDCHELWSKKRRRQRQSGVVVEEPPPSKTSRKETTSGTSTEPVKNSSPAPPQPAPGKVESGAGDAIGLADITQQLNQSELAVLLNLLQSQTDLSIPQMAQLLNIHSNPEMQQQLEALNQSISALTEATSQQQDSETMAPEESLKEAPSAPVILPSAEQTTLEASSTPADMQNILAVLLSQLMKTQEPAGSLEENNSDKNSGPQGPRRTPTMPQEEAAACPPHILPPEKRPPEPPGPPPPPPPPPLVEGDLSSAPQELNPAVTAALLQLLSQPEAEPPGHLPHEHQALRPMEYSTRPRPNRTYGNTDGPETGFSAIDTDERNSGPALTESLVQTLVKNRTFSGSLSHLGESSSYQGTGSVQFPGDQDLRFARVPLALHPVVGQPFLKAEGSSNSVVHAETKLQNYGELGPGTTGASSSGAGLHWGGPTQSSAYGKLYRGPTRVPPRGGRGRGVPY
Sequence (O75909 whole entry partner, species assumed): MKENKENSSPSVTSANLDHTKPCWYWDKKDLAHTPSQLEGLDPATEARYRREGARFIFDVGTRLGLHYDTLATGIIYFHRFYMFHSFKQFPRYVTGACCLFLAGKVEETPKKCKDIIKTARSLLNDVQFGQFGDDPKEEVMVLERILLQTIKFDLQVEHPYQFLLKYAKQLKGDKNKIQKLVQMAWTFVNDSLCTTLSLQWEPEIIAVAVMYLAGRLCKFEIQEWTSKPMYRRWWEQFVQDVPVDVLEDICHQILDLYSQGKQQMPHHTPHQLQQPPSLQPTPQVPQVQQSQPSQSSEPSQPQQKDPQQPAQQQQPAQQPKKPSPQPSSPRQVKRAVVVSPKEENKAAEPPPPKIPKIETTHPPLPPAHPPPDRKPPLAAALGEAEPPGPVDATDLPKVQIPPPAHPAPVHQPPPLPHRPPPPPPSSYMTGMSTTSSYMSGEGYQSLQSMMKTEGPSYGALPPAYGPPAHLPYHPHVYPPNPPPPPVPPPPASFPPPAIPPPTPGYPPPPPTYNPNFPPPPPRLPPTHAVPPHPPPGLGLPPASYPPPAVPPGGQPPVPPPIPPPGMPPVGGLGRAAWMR
Assay: Measurement of CDK12 inhibitory activity by binding assay (TR-FRET, 66 nM BODIPY-FL-labeled AT-7519)
Settings: inhibitory rate against CDK12 at 1 μM test compound, 66 nM BODIPY-FL-labeled AT-7519, 2 nM CDK12/CycK
MEASURED_PARAMETER: inhibition at 1 µM (%)
Provide the reading as a plain figure in %.

Task: Given Cn1cc(-c2ccc(N(C(=O)NCc3ccccc3)[C@H]3CC[C@H](Nc4ncc(C#N)c(NC5COC5)n4)CC3)cc2)cn1 , respond with its inhibition at 1 µM.
Output: 102

Task: Given COc1ncc(-c2ccc(N(C(=O)NCc3ccccc3)[C@H]3CC[C@H](Nc4ncc(C(F)(F)F)c(NC5COC5)n4)CC3)nc2)cn1 , respond with its inhibition at 1 µM.
Output: 100

Task: Given COc1ncc(-c2ccc(N(C(=O)OCc3ccccn3)[C@H]3CC[C@H](Nc4ncc(C(F)(F)F)c(OC5COC5)n4)CC3)nc2)cn1 , respond with its inhibition at 1 µM.
Output: 100

* * *

Target: CDK12/CycK complex (Homo sapiens, UniProt Q9NYV4)
Test: Measurement of CDK12 inhibitory activity by binding assay (TR-FRET, 66 nM BODIPY-FL-labeled AT-7519)
Details: inhibitory rate against CDK12 at 1 μM test compound, 66 nM BODIPY-FL-labeled AT-7519, 2 nM CDK12/CycK
MEASURED_PARAMETER: inhibition at 1 µM (%)
Provide the reading as a plain figure in %.

Task: Given COc1ncc(-c2ccc(N(C(=O)OCc3ccccc3)[C@H]3CC[C@H](Nc4ncc(C#N)c(NC5COC5)n4)CC3)nc2)cn1 [Example 581] , respond with its inhibition at 1 µM.
Output: 88

Task: Given COc1ncc(-c2ccc(N(C(=O)COc3ccccc3)[C@H]3CC[C@H](Nc4ncc(C(F)(F)F)c(N5CC(C)(O)C5)n4)CC3)nc2)cn1 [Example 623] , respond with its inhibition at 1 µM.
Output: 100

Task: Given COc1ncc(-c2ccc(N(C(=O)N[C@H](C)c3ccccc3)[C@H]3CC[C@H](Nc4ncc(C(F)(F)F)c(N5CC(C)(O)C5)n4)CC3)nc2)cn1 [Example 631] , respond with its inhibition at 1 µM.
Output: 103

Task: Given Cn1cc(-c2cnc(N(C(=O)NCc3ccccc3)[C@H]3CC[C@H](Nc4ncc(C#N)c(NC5COC5)n4)CC3)nc2)cn1 [Example 575] , respond with its inhibition at 1 µM.
Output: 101
